- procedure-summary: High-throughput drug toxicity screening in the BPDCN cell line Cal-1 (AID 1224825);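 note: cells exposed to compounds for 48 h; 100% = DMSO and 0% = bortezomib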
- measurement-parameters: Cal-1 BPDCN cell viability, qHTS; at 45.8 µM (top of the series) unless noted
metric-name: viability (% of control) (%)
Give your result in % as a bare value.

Field: example entries. Status: answers known.
Request: // returns reported viability (% of control) for input COc1c2occc2cc2ccc(=O)oc12
Response: 93.5

Request: // returns reported viability (% of control) for input CN(C)CCc1c[nH]c2ccc(Cn3cncn3)cc12
Response: 54.2

Request: // returns reported viability (% of control) for input CC1(C)CCC(C)(C)c2cc(NC(=O)c3ccc(C(=O)O)cc3)ccc21
Response: 66

***
Request: // returns reported viability (% of control) for input O=C(O)c1cc(=O)c2c(OCC(O)COc3cccc4oc(C(=O)O)cc(=O)c34)cccc2o1
Response: 115

Request: // returns reported viability (% of control) for input COC(=O)C1=C(C)NC(C)=C(C(=O)OCCCN2CCC(c3ccccc3)(c3ccccc3)CC2)C1c1cccc([N+](=O)[O-])c1 (stereo unspecified)
Response: 123

Request: // returns reported viability (% of control) for input C=C(c1ccc(C(=O)O)cc1)c1cc2c(cc1C)C(C)(C)CCC2(C)C
Response: 89.3

Request: // returns reported viability (% of control) for input CCCCC(CC)COC(=O)C(C#N)=C(c1ccccc1)c1ccccc1 (stereo unspecified)
Response: 112

Request: // returns reported viability (% of control) for input O=C(NCCO[N+](=O)[O-])c1cccnc1
Response: 117

Request: // returns reported viability (% of control) for input Cc1ccc(C(=O)c2cc(O)c(O)c([N+](=O)[O-])c2)cc1
Response: 73.3

Request: // returns reported viability (% of control) for input CN(C)CCCC1(c2ccc(F)cc2)OCc2cc(C#N)ccc21 (stereo unspecified)
Response: 99.6

---

- Test system: CP256
- procedure-summary: qHTS profiling for inhibitors of Plasmodium falciparum proliferation (AID 504749); note: nearly all actives have a fitted effect of over 60% in size
- measurement-parameters: P. falciparum in erythrocytes, SYBR Green DNA, 72 h; series mostly up to 28.7 µM
Results filed as inconclusive are left out. The source made the active and inactive calls. The call rests on the fitted dose curve; in most records, active means well fitted inhibition curve with a large enough effect; inconclusive means small, poorly fitted or top-dose-only effect; inactive means flat fitted curve, though single readings scatter.
Outcome (select one): active, inactive

Request: Answer briefly: the call reported for Cn1c(NCCN(CCO)CCCc2ccc([N+](=O)[O-])cc2)cc(=O)n(C)c1=O in this assay.
Response: inactive

***
Request: Answer briefly: the call reported for CN(C)c1ccc2nc3ccc(=[N+](C)C)cc-3sc2c1 in this assay.
Response: active

Request: Answer briefly: the call reported for O=C(O)CCNC(=O)c1ccc(N=Nc2ccc(O)c(C(=O)O)c2)cc1 in this assay.
Response: inactive

Request: Answer briefly: the call reported for CC(S)C(=O)NCC(=O)O (stereo not given) in this assay.
Response: inactive

Request: Answer briefly: the call reported for C[C@]12CCC(=O)C=C1CC[C@@H]1[C@H]2[C@@H](O)C[C@@]2(C)[C@H]1CC[C@]2(O)C(=O)CO in this assay.
Response: inactive

---

- procedure-summary: Quantitative High-Throughput drug screen in 47 multiple myeloma cell lines against the NCATS MIPE library collection: VP6_DJ cell viability assay (AID 1919867); note: nearly all actives have a fitted effect of over 40% in size
- measurement-parameters: ATP luminescence, 48 h; series mostly up to 45.8 µM
Records with an inconclusive call do not appear. Active and inactive are the calls of the source. Calls come from the whole dose curve; as a rule, active = well fitted cell-killing curve with a large enough effect; inconclusive = small, poorly fitted or top-dose-only effect, or effect the other way; inactive = no such curve, though single readings can be large or run the other way.
Outcome (select one): class 1 (active), class 0 (inactive)

Request: Answer briefly: the call reported for Cc1nc(Nc2ncc(C(=O)Nc3c(C)cccc3Cl)s2)cc(N2CCN(CCO)CC2)n1 in this assay.
Response: class 1

Request: Answer briefly: the call reported for CCC(C)(Oc1ccc(C2(c3ccc(OC(C)(CC)C(=O)O)cc3)CCCCC2)cc1)C(=O)O (stereo not given) in this assay.
Response: class 0

Request: Answer briefly: the call reported for COC1=C(OC)C(=O)C(CCCCCCCCCCO)=C(C)C1=O in this assay.
Response: class 1

Request: Answer briefly: the call reported for Nc1ncn([C@H]2C[C@H](O)[C@@H](CO)O2)c(=O)n1 in this assay.
Response: class 0

Request: Answer briefly: the call reported for CCOc1cc(CC(=O)N[C@@H](CC(C)C)c2ccccc2N2CCCCC2)ccc1C(=O)O in this assay.
Response: class 0

Request: Answer briefly: the call reported for CC1(C)C(=O)N(CCN2CCC(C(=O)c3ccc(F)cc3)CC2)c2ccccc21 in this assay.
Response: class 1

Request: Answer briefly: the call reported for Cc1ccc(S(=O)(=O)NC(=O)NN2CC3CCCC3C2)cc1 (stereo not given) in this assay.
Response: class 1

Request: Answer briefly: the call reported for Cc1ccc(C)c(OCCCC(C)(C)C(=O)O)c1 in this assay.
Response: class 1

Request: Answer briefly: the call reported for C[C@H](Cc1ccc(O)c(O)c1)[C@@H](C)Cc1ccc(O)c(O)c1 in this assay.
Response: class 1

Request: Answer briefly: the call reported for CC(=O)N1CCN(c2ccc(OC[C@H]3CO[C@](Cn4ccnc4)(c4ccc(Cl)cc4Cl)O3)cc2)CC1 in this assay.
Response: class 1
